- system.under.test: Adenosine receptor A3 (Rattus norvegicus)
- Sequence (P28647 whole entry): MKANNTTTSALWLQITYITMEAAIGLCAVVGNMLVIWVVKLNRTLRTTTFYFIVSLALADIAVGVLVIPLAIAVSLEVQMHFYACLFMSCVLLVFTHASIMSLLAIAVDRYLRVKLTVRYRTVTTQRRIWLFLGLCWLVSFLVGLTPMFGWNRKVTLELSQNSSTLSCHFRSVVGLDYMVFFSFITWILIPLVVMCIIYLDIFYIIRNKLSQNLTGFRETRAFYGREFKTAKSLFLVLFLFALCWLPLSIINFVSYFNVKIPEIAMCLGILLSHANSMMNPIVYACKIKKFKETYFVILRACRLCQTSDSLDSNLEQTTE
- procedure.text: Displacement of [125I]AB-MECA from cloned rat Adenosine A3 receptor in stably transfected CHO cells
Class boundaries, taken from values of Ki, are as follows: interval 1 (below 30 nM), interval 2 (30 nM to below 100 nM), interval 3 (100 nM or more)

GET /class?item= CCCCCCCCNC(=O)Nc1ncnc2c1ncn2[C@@H]1O[C@H](C(=O)NCC)[C@@H](O)[C@H]1O
interval 3

GET /class?item= CCNC(=O)[C@H]1O[C@@H](n2cnc3c(NC(=O)Nc4ccccc4)ncnc32)[C@H](O)[C@@H]1O
interval 2

GET /class?item= CCNC(=O)[C@H]1O[C@@H](n2cnc3c(NC(=O)Nc4cccc(OC)c4)ncnc32)[C@H](O)[C@@H]1O
interval 2

GET /class?item= CCNC(=O)[C@H]1O[C@@H](n2cnc3c(NC(=O)NC(C)(C)C)ncnc32)[C@H](O)[C@@H]1O
interval 3

GET /class?item= CCNC(=O)[C@H]1O[C@@H](n2cnc3c(NC(=O)Nc4ccccc4F)ncnc32)[C@H](O)[C@@H]1O
interval 2

GET /class?item= CCNC(=O)[C@H]1O[C@@H](n2cnc3c(NC(=O)Nc4ccccc4Cl)ncnc32)[C@H](O)[C@@H]1O
interval 1

GET /class?item= CNC(=O)[C@H]1O[C@@H](n2cnc3c(NC(=O)Nc4cccc(Cl)c4)ncnc32)[C@H](O)[C@@H]1O
interval 3

GET /class?item= CCNC(=O)[C@H]1O[C@@H](n2cnc3c(NC(=O)Nc4cccc(F)c4)ncnc32)[C@H](O)[C@@H]1O
interval 2

GET /class?item= CCNC(=O)[C@H]1O[C@@H](n2cnc3c(NC(=O)Nc4ccc(F)cc4)ncnc32)[C@H](O)[C@@H]1O
interval 1

GET /class?item= CCNC(=O)[C@H]1O[C@@H](n2cnc3c(NC(=O)Nc4cccc(Br)c4)ncnc32)[C@H](O)[C@@H]1O
interval 3

GET /class?item= CCNC(=O)[C@H]1O[C@@H](n2cnc3c(NC(=O)Nc4ccc(Cl)cc4)ncnc32)[C@H](O)[C@@H]1O
interval 3

GET /class?item= CCNC(=O)[C@H]1OC(n2cnc3c(NC(=O)Nc4ccc(C(F)(F)F)cc4)ncnc32)[C@H](O)[C@@H]1O (some centres undefined)
interval 3

---

- system.under.test: Adenosine receptors; A1 & A3 (Rattus norvegicus) (UniProt P25099+P28647)
- procedure.text: Selectivity, ratio between A1 receptor binding affinity / A3 receptor binding affinity
- Type: protein assay
Give Selectivity for every item shown.
Respond using a number only.

Specify the recorded Selectivity for CCNC(=O)[C@H]1OC(n2cnc3c(NC(=O)Nc4ccc(C(F)(F)F)cc4)ncnc32)[C@H](O)[C@@H]1O (stereo partly specified) , system: Adenosine receptors; A1 & A3 (Rattus norvegicus) (UniProt P25099+P28647).
4.9

Specify the recorded Selectivity for CCNC(=O)[C@H]1O[C@@H](n2cnc3c(NC(=O)Nc4ccc(I)cc4)ncnc32)[C@H](O)[C@@H]1O , system: Adenosine receptors; A1 & A3 (Rattus norvegicus) (UniProt P25099+P28647).
0.6

Specify the recorded Selectivity for CCNC(=O)[C@H]1O[C@@H](n2cnc3c(NC(=O)Nc4cccc(Cl)c4)ncnc32)[C@H](O)[C@@H]1O , system: Adenosine receptors; A1 & A3 (Rattus norvegicus) (UniProt P25099+P28647).
10

Specify the recorded Selectivity for CCNC(=O)[C@H]1O[C@@H](n2cnc3c(NC(=O)Nc4cccc(OC)c4)ncnc32)[C@H](O)[C@@H]1O , system: Adenosine receptors; A1 & A3 (Rattus norvegicus) (UniProt P25099+P28647).
2.7

Specify the recorded Selectivity for CCNC(=O)[C@H]1OC(n2cnc3c(NC(=O)Nc4cccc(C(F)(F)F)c4)ncnc32)[C@H](O)[C@@H]1O (stereo partly specified) , system: Adenosine receptors; A1 & A3 (Rattus norvegicus) (UniProt P25099+P28647).
9.1

Specify the recorded Selectivity for CCNC(=O)[C@H]1O[C@@H](n2cnc3c(NC(=O)Nc4cccc(I)c4)ncnc32)[C@H](O)[C@@H]1O , system: Adenosine receptors; A1 & A3 (Rattus norvegicus) (UniProt P25099+P28647).
0.5

---

- system.under.test: Adenosine receptors; A1 & A3 (Rattus norvegicus) (UniProt P25099+P28647)
- procedure.text: Selectivity, ratio between A1 receptor binding affinity / A3 receptor binding affinity
- Assay type: protein assay
Give Selectivity for every item shown.

Please give the documented Selectivity of CCNC(=O)[C@H]1O[C@@H](n2cnc3c(NC(=O)Nc4ccccc4C(F)(F)F)ncnc32)[C@H](O)[C@@H]1O
7.4

Please give the documented Selectivity of CCNC(=O)[C@H]1O[C@@H](n2cnc3c(NC(=O)Nc4ccccc4OC)ncnc32)[C@H](O)[C@@H]1O
2.4

Please give the documented Selectivity of CCCCCCCCNC(=O)Nc1ncnc2c1ncn2[C@@H]1O[C@H](C(=O)NCC)[C@@H](O)[C@H]1O
1.4

Please give the documented Selectivity of CCNC(=O)[C@H]1O[C@@H](n2cnc3c(NC(=O)Nc4ccc(C)cc4)ncnc32)[C@H](O)[C@@H]1O
3.8

Please give the documented Selectivity of CCNC(=O)[C@H]1O[C@@H](n2cnc3c(NC(=O)NC(C)(C)C)ncnc32)[C@H](O)[C@@H]1O
0.75

Please give the documented Selectivity of CCNC(=O)[C@H]1O[C@@H](n2cnc3c(NC(=O)Nc4ccccc4Cl)ncnc32)[C@H](O)[C@@H]1O
15

Please give the documented Selectivity of CCNC(=O)[C@H]1O[C@@H](n2cnc3c(NC(=O)Nc4ccccc4F)ncnc32)[C@H](O)[C@@H]1O
2.2

Please give the documented Selectivity of CNC(=O)[C@H]1O[C@@H](n2cnc3c(NC(=O)Nc4ccc(OC)cc4)ncnc32)[C@H](O)[C@@H]1O
8.8

Please give the documented Selectivity of CCNC(=O)[C@H]1O[C@@H](n2cnc3c(NC(=O)Nc4cccc(F)c4)ncnc32)[C@H](O)[C@@H]1O
2.6

Please give the documented Selectivity of CCNC(=O)[C@H]1O[C@@H](n2cnc3c(NC(=O)Nc4ccc(Cl)cc4)ncnc32)[C@H](O)[C@@H]1O
0.6

Please give the documented Selectivity of CCNC(=O)[C@H]1O[C@@H](n2cnc3c(NC(=O)Nc4cccc(Br)c4)ncnc32)[C@H](O)[C@@H]1O
0.9

Please give the documented Selectivity of CNC(=O)[C@H]1O[C@@H](n2cnc3c(NC(=O)Nc4cccc(Cl)c4)ncnc32)[C@H](O)[C@@H]1O
4.8

Please give the documented Selectivity of CCNC(=O)[C@H]1O[C@@H](n2cnc3c(NC(=O)Nc4ccccc4I)ncnc32)[C@H](O)[C@@H]1O
5.6

Please give the documented Selectivity of CCNC(=O)[C@H]1O[C@@H](n2cnc3c(NC(=O)Nc4ccccc4)ncnc32)[C@H](O)[C@@H]1O
2.8

Please give the documented Selectivity of CCNC(=O)[C@H]1O[C@@H](n2cnc3c(NC(=O)Nc4ccc(OC)cc4)ncnc32)[C@H](O)[C@@H]1O
4.9

Please give the documented Selectivity of CCNC(=O)[C@H]1O[C@@H](n2cnc3c(NC(=O)Nc4ccc(F)cc4)ncnc32)[C@H](O)[C@@H]1O
4.4

---

- system.under.test: Adenosine receptor A1 (Rattus norvegicus, UniProt P25099)
- Sequence (P25099 whole entry): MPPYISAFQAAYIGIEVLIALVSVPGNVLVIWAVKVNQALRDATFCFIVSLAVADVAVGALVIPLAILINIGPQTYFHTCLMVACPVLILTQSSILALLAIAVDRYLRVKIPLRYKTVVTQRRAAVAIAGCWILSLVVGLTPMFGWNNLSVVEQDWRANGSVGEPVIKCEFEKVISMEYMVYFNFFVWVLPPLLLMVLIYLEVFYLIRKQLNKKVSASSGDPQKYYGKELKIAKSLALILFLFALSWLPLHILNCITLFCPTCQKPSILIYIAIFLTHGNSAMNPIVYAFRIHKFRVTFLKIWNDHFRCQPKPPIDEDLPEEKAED
Give Ki for every item shown.
Write the numeric value and follow it with the unit.

Please give the documented Ki of CCNC(=O)[C@H]1O[C@@H](n2cnc3c(NC(=O)NC(C)(C)C)ncnc32)[C@H](O)[C@@H]1O
1440 nM

Please give the documented Ki of CCNC(=O)[C@H]1OC(n2cnc3c(NC(=O)Nc4ccc(C(F)(F)F)cc4)ncnc32)[C@H](O)[C@@H]1O (stereo not given in full)
739 nM

Please give the documented Ki of CCNC(=O)[C@H]1O[C@@H](n2cnc3c(NC(=O)Nc4ccccc4Cl)ncnc32)[C@H](O)[C@@H]1O
111 nM

Please give the documented Ki of CCNC(=O)[C@H]1O[C@@H](n2cnc3c(NC(=O)Nc4cccc(Cl)c4)ncnc32)[C@H](O)[C@@H]1O
45 nM

Please give the documented Ki of CCNC(=O)[C@H]1O[C@@H](n2cnc3c(NC(=O)Nc4cccc(F)c4)ncnc32)[C@H](O)[C@@H]1O
103 nM

Please give the documented Ki of CCNC(=O)[C@H]1O[C@@H](n2cnc3c(NC(=O)Nc4ccc(Cl)cc4)ncnc32)[C@H](O)[C@@H]1O
72 nM

Please give the documented Ki of CCNC(=O)[C@H]1O[C@@H](n2cnc3c(NC(=O)Nc4ccc(F)cc4)ncnc32)[C@H](O)[C@@H]1O
85 nM

Please give the documented Ki of CCNC(=O)[C@H]1O[C@@H](n2cnc3c(NC(=O)Nc4ccccc4I)ncnc32)[C@H](O)[C@@H]1O
179 nM

Please give the documented Ki of CCNC(=O)[C@H]1O[C@@H](n2cnc3c(NC(=O)Nc4ccc(I)cc4)ncnc32)[C@H](O)[C@@H]1O
64 nM

Please give the documented Ki of CNC(=O)[C@H]1O[C@@H](n2cnc3c(NC(=O)Nc4ccc(OC)cc4)ncnc32)[C@H](O)[C@@H]1O
491 nM
